Listed molecules paired with reported Km
ASSAY_TEXT: Standard protocol for determination of kcat and KM (continuous spectrophotometric assay, Acetyl CoA hydrolysis at 235 nm)
Assay type: biochemical
EXPERIMENTAL_SETUP: purified protein; about 23° C.; pH 6.8; 0.2 mM acetyl CoA; glyphosate 0.125 to 10 mM
Only the number, expressed in µM, is required.

SEQ ID NO: 456: GAT polypeptide (protein, 10_4G5, GAT polypeptide) MIEVKPINAEDTYELRHRILRPNQPIEACMFESDLLRGAFHLGGYYRGKLISIASFHQAEHSDLQGQKQYQLRGMATLEGYRDQKAGSSLIRHAEQILRKRGADLLWCNARTSASGYYKKLGFSEQGEIFDTPPVGPHILMYKRLT = 580

State the recorded Km for this entry: SEQ ID NO: 284: GAT polypeptide (protein, 11G3, GAT polypeptide) MIEVKPINAEDTYEIRHRILRPNQPLEACMYETDLLGGTFHLGGYYQGKLISIASFHQAEHSELEGQKQYQLRGMATLEGYREQKAGSTLIRHAEELLRKKGADLLWCNARTSASGYYEKLGFSEQGGVYDIPPIGPHILMYKKLA
1700
